Test: IUF_NPC3_neuronal_differentiation_120hr: Leibniz Research Institute for Environmental Medicine (IUF) 120-hour Neuronal Differentiation Assay (NPC3) (AID 2284301)
The source made the active and inactive calls. Rule for the calls: active = hit-call score of the fitted dose curve at least 0.9, where 1 is the maximum; inactive = score below 0.9.
Allowed answers: active, inactive

Example cases with answers are listed next.
[[record]]
compound = "Cc1cc(C(F)(C(F)(F)F)C(F)(F)F)ccc1NC(=O)c1cccc(I)c1C(=O)NC(C)(C)CS(C)(=O)=O"
assigned_class = "inactive"

[[record]]
compound = "CC1(C)[C@H](C(=O)O[C@H](C#N)c2cccc(Oc3ccccc3)c2)[C@@H]1/C=C(\\Cl)C(F)(F)F"
assigned_class = "inactive"

[[record]]
compound = "OC(Cc1ccccc1Cl)(Cn1[nH]cnc1=S)C1(Cl)CC1 (stereo unspecified)"
assigned_class = "active"

[[record]]
compound = "CS(=O)(=O)c1ccc(C(=O)C2C(=O)CCCC2=O)c(Cl)c1COCC(F)(F)F"
assigned_class = "inactive"

[[record]]
compound = "Cc1ccccc1OP(=O)(Oc1ccccc1C)Oc1ccccc1C"
assigned_class = "inactive"


From here, focus on the item given below.
Recorded test call requested for CC(C)[C@@H](Nc1ccc(C(F)(F)F)cc1Cl)C(=O)OC(C#N)c1cccc(Oc2ccccc2)c1 (stereo partly specified)
active

Value source: PubChem BioAssay (EPA / NIEHS)
